test system: islet-infiltrating CD8^+ T cells of NOD mice; test: IFN-γ recall assay of islet-infiltrating cells against peptide-pulsed K^d+ L cells; format: cell-based, mouse; settings: 12-16-week-old NOD females; 6 h recall
measurementType: percentage of IFN-γ^+CD8^+ cells, positive range

# substance, measuredResult
data = [
    ("TYFLLPLLL [Ucn3 5-13, murine Ucn3 peptide predicted to be restricted by K^d]", "2.1-8.6%"),
    ("GYRDINEIDI [Pcsk2 109-118, murine Pcsk2 peptide predicted to be restricted by K^d]", "1.9-4.3%"),
    ("VFSCLNTAL [Ucn3 32-40, murine Ucn3 peptide predicted to be restricted by K^d]", "1.9-3.3%"),
    ("IGRP 206-214: positive control peptide in NOD recall assay (VYLKTNVFL; UniProt Q9Z186 206-214, looked up, fragment) [reference compound]", "4.5-25.3%"),
    ("LYDESCSSTL [Pcsk2 341-350, murine Pcsk2 peptide predicted to be restricted by K^d]", "1.9-5.2%"),
    ("RYLEHVQAVI [Pcsk2 501-510, murine Pcsk2 peptide predicted to be restricted by K^d]", "2.1-8.0%"),
]
